Please respond with reported Percent Effect for every item in the list.
Test system: Wolbachia pipientis
protocol text: Anti-Wolbachia Cell-Based Screen
Type: functional
Design: scale not given: in the data most compounds retested in dose-response had high values
experimental setup: 5 µM
The campaign covered roughly 48,000 compounds. About 13,000 (27%) showed an effect of 50% or more. This is one part of the list.
Give bare numbers, in %.

Please review the entries below; each comes with its answer.
compound: O=C(CCn1cccc1)NCc1ccc(CN2CCCCCC2)o1
measure name: Percent Effect
unit abbrev: %
recorded value: 106.7
--
compound: CC(C)c1nnc2n1CCN(C(C)c1nnc(-c3cccs3)o1)C2 (stereo not given)
measure name: Percent Effect
unit abbrev: %
recorded value: -12.3
--
compound: Cc1cccc(NC(=O)N2Cc3c(CN(C)C)nn(C)c3C2)c1
measure name: Percent Effect
unit abbrev: %
recorded value: -10.1

Could you report Percent Effect for every entry in the following list?
1. O=C(CCSc1ccc(F)cc1)NS(=O)(=O)c1ccc2c(c1)OCCO2
2. Cc1cc(C)n(CC(C)CNC(=O)N(C)Cc2ccco2)n1 (stereo not given)
3. COCc1noc(Cn2ccc3ncccc3c2=O)n1
4. COCC1c2c(cnn2C)CCN1C(=O)c1ccc2c(c1)OCO2 (stereo not given)
5. COCc1noc(Cn2ccc3ccccc3c2=O)n1
6. CN(C)Cc1nn(C)c2c1CCN(C(=O)CC1CC1)C2.O=C(O)C(F)(F)F
7. COCCc1noc(Cn2ccc3ccccc3c2=O)n1

5.18
23.18
1.423
20.59
-17.57
5.365
-26.03

Could you report Percent Effect for every entry in the following list?
1. CN(C)Cc1nn(C)c2c1CN(C(=O)Nc1cccc(F)c1)C2
2. COc1ccc(CC(=O)N2CC[C@@H]3[C@H](CC2)N(C)CCS3(=O)=O)cc1.O=C(O)C(F)(F)F
3. COCCN1C[C@H]2CN(C(=O)c3ccc4c(c3)OCO4)CCN2C1=O
4. Cn1nc(CN2CCCC2)c2c1CN(C(=O)c1cccnc1)CC2.O=C(O)C(F)(F)F.O=C(O)C(F)(F)F
5. CC(C)C(=O)N1CCCC2(CCCN2CC2CCCC2)C1.O=C(O)C(F)(F)F (stereo not given)
6. CN(C)Cc1nn(C)c2c1CCN(S(=O)(=O)c1cccs1)C2
7. Cc1nnc(SCCC(=O)N(C)Cc2ccc(Cl)s2)[nH]1
8. CSc1ccccc1C(=O)Nc1ccc(OC2CCN(C)CC2)cc1

-15.2
16.94
-8.36
-3.711
4.18
12.48
6.778
4.435

Could you report Percent Effect for every entry in the following list?
1. CCC(=O)NC(CC(C)C)c1cccs1 (stereo not given)
2. CN1CCN(Cc2ccccc2CNC(=O)c2cc(Cl)ccc2F)CC1
3. COCC(C)NC(=O)CN1CCC2(CC1)OCCO2 (stereo not given)

11.67
-3.272
-2.993

====

Tested on: Wolbachia pipientis
protocol text: Anti-Wolbachia Cell-Based Screen
Type: functional
Design: scale not given: in the data most compounds retested in dose-response had high values
experimental setup: 5 µM
About 13,000 (27%) of roughly 48,000 compounds showed an effect of 50% or more. The list shows a part of the results.
measure name: Percent Effect (%)
Numbers only, in %.

molecule: O=C(c1ccnnc1)N1C[C@@H]2CN(c3ncccn3)C[C@@H]2C1
unit abbrev: %
Percent Effect: 15.26
//
molecule: CCN1CCO[C@@H]2CN(C(=O)c3cocn3)C[C@@H]2C1.O=C(O)C(F)(F)F
unit abbrev: %
Percent Effect: -9.016

Could you report Percent Effect for every entry in the following list?
1. Cn1cc(C(=O)N2CC[C@@]3(O)CCN(C4CCCCC4)C[C@H]3C2)cn1
2. Nc1nccnc1CC1CCCN(Cc2ccnc3ccccc23)C1 (stereo not given)
3. Cc1ccnc(C(=O)N2C[C@@H]3CN(S(C)(=O)=O)CCO[C@@H]3C2)c1.O=C(O)C(F)(F)F
4. Cc1cncc(C(=O)N2C[C@@H]3CN(S(C)(=O)=O)CCO[C@@H]3C2)c1.O=C(O)C(F)(F)F
5. c1ccc2c(Cc3nnc([C@H]4CCN(CC5CC5)C4)o3)c[nH]c2c1
6. COc1ccccc1CN1CCCC(Cc2nccnc2N)C1 (stereo not given)
7. COc1ccccc1CC1CCCN(C(=O)c2nccnc2N)C1 (stereo not given)
8. Nc1nccnc1CC1CCCN(Cc2c[nH]c3ccccc23)C1 (stereo not given)

1. -10.98
2. 254.5
3. -16.56
4. 122.6
5. -3.432
6. 104.1
7. 7.342
8. 102
